method-summary: amyloid nucleation score (Sup35N fusion, yeast selection) (log enrichment); library NNK3; higher = more nucleation; inactive = no reads after selection;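 also: zero at mode of non-aggregating sequences after 7 days selection at 30°C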
assay-metric: amyloid nucleation score

Would you please look over these solved cases?
{"columns": ["substance", "amyloid nucleation score"],
 "data": [
  ["IWWNHCEHHMLRSSLRVRAY", "inactive"],
  ["SCNSRFMI", -0.082],
  ["LWLSDRNSLDSIAVCA", 1.24],
  ["ITARLVTS", "inactive"]
]}

# input Indicate its recorded amyloid nucleation score; the substance in question is LPYTGIYSRFRDRLWCVLKT
# output inactive

# input Indicate its recorded amyloid nucleation score; the substance in question is LDLCSRL
# output inactive

###

Examples of substances with documented amyloid nucleation score follow.
method-summary: amyloid nucleation score (Sup35N fusion, yeast selection) (log enrichment); library NNK2; higher = more nucleation; inactive = no reads after selection
Just the number.

Would you please look over these solved cases?
{"columns": ["substance", "assay-metric", "value-measured"],
 "data": [
  ["VHLTAVWCLDRRRVRKIFIV", "amyloid nucleation score", -0.802],
  ["DCSMVIMYFASGRSRALSNR", "amyloid nucleation score", 4.48],
  ["YKLYTFCKSRMHVPAYGFSY", "amyloid nucleation score", -1.96],
  ["KMLSMDNYD", "amyloid nucleation score", 0.043],
  ["STPDVVEAWFL", "amyloid nucleation score", 0.039],
  ["YVFLEGFNRVFDHVACIGLK", "amyloid nucleation score", -0.721]
]}

# input Indicate its recorded amyloid nucleation score; the substance in question is YIGCNNYEGKNKCVIFLSFS
# output 6.08

# input Indicate its recorded amyloid nucleation score; the substance in question is SLISKEFVGLVGGET
# output -0.388

# input Indicate its recorded amyloid nucleation score; the substance in question is CMGNSYFMFNSYANFKNNWA
# output 5.54

# input Indicate its recorded amyloid nucleation score; the substance in question is YNRGMQLIAVVL
# output 0.725

# input Indicate its recorded amyloid nucleation score; the substance in question is SMSYDRWKAKS
# output -0.446

# input Indicate its recorded amyloid nucleation score; the substance in question is IVTAGWNLVFRKYADTRMVQ
# output -0.337

# input Indicate its recorded amyloid nucleation score; the substance in question is CTMYLALRGVW
# output 4.56

# input Indicate its recorded amyloid nucleation score; the substance in question is EAKFGKLKGYKCTVTGECSC
# output -0.391

# input Indicate its recorded amyloid nucleation score; the substance in question is NVHFFCWCFLNLCV
# output -0.558

# input Indicate its recorded amyloid nucleation score; the substance in question is PLQPNAIRRSMVSF
# output 0.894

# input Indicate its recorded amyloid nucleation score; the substance in question is RPLLKRKESM
# output 0.573

# input Indicate its recorded amyloid nucleation score; the substance in question is NDFWRYV
# output -0.591

# input Indicate its recorded amyloid nucleation score; the substance in question is FRVTIMVIQNSPTVSPGLAG
# output 4.31

# input Indicate its recorded amyloid nucleation score; the substance in question is SYTSGYLLVYPFVNIVVFYP
# output -1.64

# input Indicate its recorded amyloid nucleation score; the substance in question is HTKMYRAAARMVGAGNDFDM
# output 0.146

# input Indicate its recorded amyloid nucleation score; the substance in question is VIYMNAGLYLRLKRRFDYVV
# output 0.72

# input Indicate its recorded amyloid nucleation score; the substance in question is SGTRYYPSWIFGFLVVCKG
# output -0.404

# input Indicate its recorded amyloid nucleation score; the substance in question is LLFWLIRETRSLLSIYLVGT
# output 0.198
